- Test system: SF-539
- Experimental Details: NCI tumour cell line growth inhibition, 48 h
Active and inactive are the calls of the source. No stated cut-off is given here; in the data, active = GI50 up to about 1.1 µM and inactive = higher.
The reply should name one outcome from active, inactive

Could you check what this test reported for CC(CC(=O)CO[C@H]1[C@H](O)[C@@H](O)[C@@H](O)[C@@H]2NC(=O)c3c(cc4c(c3O)OCO4)[C@H]21)OC1OC(CO)C(O)C(O)C1O (some centres undefined) ?
active

What outcome does the record of this test show for N#Cc1c(N)c(C(=O)O)nn(-c2cccc(C(F)(F)F)c2)c1=O ?
inactive

Test call, this molecule: O=c1[nH]c(=O)n([C@H]2CCCO2)cc1F
inactive

How was COc1ccc(NC(C)=O)cc1C1CCC(=O)N1 (centres undefined) classified in this test?
inactive

* * *

- Test system: MDA-N
- Experimental Details: NCI tumour cell line growth inhibition, 48 h
Calls of active or inactive are those of the source. Rule as the data show it: active = GI50 up to about 1.1 µM and inactive = higher.
// one of active, inactive, no free text

What call does the record list for O=Cc1ccc(-c2ccc(-c3ccc(C=O)s3)o2)s1 ?
inactive

Please indicate how the test categorized CCOC(=O)NC(NC1=NCCS1)(C(=O)OCC)C(F)(F)F (stereo not given) .
inactive

Please share the test call associated with Nc1ncc(C=O)c(NCC2(CO)CCC2)n1 .
inactive

State the result this test recorded for CP(C)(=S)P(C)(C)=S .
inactive

Hi team, can someone confirm the assay call for Cc1nnc(SCc2nc(C#N)c(C#N)nc2CSc2nnc(C)s2)s1 ?
inactive

Recorded test call requested for NC(C(=O)O)c1cc(O)no1 (stereo not given)
inactive

Hi, sorry to bother you, what did the test record for CO/N=C1/C(n2[nH]c(=O)n(-c3ccccc3)c2=O)C2C=CC1n1c(=O)n(-c3ccccc3)c(=O)n12 (stereo not given) ?
inactive

// outcome(item) with item = COc1cc(/C=C2\C[C@H]3[C@@H]4CC=C5C[C@@H](OC(C)=O)CC[C@]5(C)[C@H]4CC[C@]3(C)\C2=N\O)cc(OC)c1OC
inactive

Entry N#CC(C#N)SCc1ccccc1 : call = ?
inactive

How did this test come out for Cc1ccc(-n2c(O)c(C#N)c3[nH]nc(N)c3c2=O)cc1 ?
inactive

# fetch the recorded call for O=C1c2ccccc2C2(c3ccc(Cl)cc3)NCc3ccccc3CN12 (stereo not given) here
inactive

// param item: C[N+]12CCCCC1C(CN1C(=O)c3ccccc3C1=O)CCC2 (stereo not given) ; yields the recorded call
inactive

Can you look up the reported call for N=C(N)SCc1ccc2c(c1)Sc1ccccc1O2 for me?
inactive

GET /call?item= Clc1cccc(Cl)c1C1SCC2=Nc3ccccc3CN21 (stereo not given) returns the recorded outcome of this test.
inactive

Field: outcome | Entry: CC(C)(C)C1CCC2c3c([nH]c4ccccc34)C3C(=O)N(c4ccc(C(=O)O)cc4)C(=O)C3C2C1 (stereo not given)
inactive

Which outcome was entered for the compound O=C(/C=C/c1ccc(Cl)cc1)Oc1ccc(C=C2CCC/C(=C\c3ccc(OC(=O)/C=C/c4ccc(Cl)cc4)cc3)C2=O)cc1 in this test?
inactive

Identify the outcome logged in this assay for the compound shown: O=C(Cn1c(-c2ccccc2)cc2ccccc21)N1CCOCC1
inactive

Short answer needed: outcome of this test for N=C(N)NCC1CCCCCCN1 (stereo not given) ?
inactive

Per the assay record, what outcome was assigned to CC(=O)OC1CC[C@@]2(C)C(=CC[C@@H]3[C@@H]2CC[C@]2(C)C(OC(C)=O)[C@H](n4ccnc4)C[C@@H]32)C1 (stereo not given in full) ?
inactive

Query: recorded result category for O=C1CCCCN1C(=O)c1ccc([N+](=O)[O-])cc1 in this test
inactive

Tell me the recorded outcome of this test for NC1CC(Cl)c2c(Cl)sc(Cl)c21 (stereo not given) .
inactive

Give the logged outcome of this assay for the following compound: COc1c(/C=C/C=O)cc2c(c1OC)OCO2
inactive

# lookup: test call for O=C(OCc1ccccc1)C1(N2CN(C3(C(=O)OCc4ccccc4)CCCC3)CN(C3(C(=O)OCc4ccccc4)CCCC3)C2)CCCC1
inactive

Test call, this compound: NCc1ccc(-c2ccc(CN)s2)s1
inactive

GET /call?item= Cc1ccc(S(=O)(=O)N2C[C@@H]3CC[C@]4(CO[Si](C)(C)C(C)(C)C)N[C@@H](c5ccccc5)[C@H]2[C@H]34)cc1 returns the recorded outcome of this test.
inactive

Which outcome was assigned to N=C(N)NS(=O)(=O)c1ccc(NC(=O)c2ccc3nc4ccccc4c(Nc4ccc(S(N)(=O)=O)cc4)c3c2)cc1 in this test?
inactive

State the result this test recorded for O=C1CCC[C@H]2O[C@@H](COC(=O)c3ccccc3)C[C@H]2O1 .
inactive

For O=C1C=C(C2=C(C3=CC(=O)c4ccccc4C3=O)C(=O)c3ccccc3C2=O)C(=O)c2ccccc21 , which call appears in the assay record?
inactive

// outcome(item) with item = CN(C)CCNc1ccc([N+](=O)[O-])c2sc3ccccc3c(=O)c12
inactive

How did this test come out for N/N=C1N=C(Cl)/C(=C/c2ccco2)N\1 ?
inactive

Hello, I am checking results. What call was entered for N#C/C(=C/C=C/c1ccco1)C(N)=O ?
inactive

Fill in: this test's call for Cc1ccc(-c2c(C#N)c(-c3ccc(Cl)cc3)c(C#N)c(=O)n2NS(=O)(=O)c2ccccc2)cc1 is ___
inactive

Dear colleague, could you share the recorded outcome for C[C@H]1[C@H](N2CCCC2)O[Si](C(C)(C)C)(C(C)(C)C)[C@@H]1C when you have a moment?
inactive

// return assay outcome for COc1ccc(-c2cn3c(nc4ccccc43)c(/C=C/c3cccs3)n2)cc1
inactive

Assay outcome for COC(=O)C[C@H](COCc1ccccc1)NC(=O)C[C@H](COCc1ccccc1)NC(=O)C[C@H](COCc1ccccc1)NC(=O)OC(C)(C)C : what was it?
inactive

Record request — test call for CC1OC(=O)C2CC3CCCCC3C(/C=C/C3CCCC(C)N3C)C12 (stereo not given)
inactive

Record lookup: outcome of this test for c1ccc(NNN2NC(c3ccccc3)C2c2ccccc2)cc1 (stereo not given) ?
inactive

Which result was noted for this compound in the test: COC(=O)c1ccc2cc(O)c(O)cc2c1
inactive

Just curious, what result did CC(CC(=O)CO[C@H]1[C@H](O)[C@@H](O)[C@@H](O)[C@@H]2NC(=O)c3c(cc4c(c3O)OCO4)[C@H]21)OC1OC(CO)C(O)C(O)C1O (stereo not given in full) get here?
active

How did this test come out for CCC1CN2CCc3cc(OC)c(OC)cc3C2CC1CC1c2cc(OC)c(OC)cc2CCN1C(=O)C(Cc1c[nH]c2ccccc12)NC(=O)OC(C)(C)C (stereo not given) ?
inactive
